Each recorded value in this set is attributed to ChEMBL document CHEMBL1201862.

Catalogue of GI50 values
Tested on: NCI-H23
Assay: NCI tumour cell line growth inhibition, 48 h
Calls of active or inactive are those of the source. No stated cut-off is given here; in the data, active = GI50 up to about 1.1 µM and inactive = higher.

{"COMPOUND": "CCOC(=O)c1nc2ccc(C(F)(F)F)cc2nc1NCc1ccc(F)cc1", "ASSAYED_SYSTEM": "NCI-H23", "READOUT_KIND": "GI50", "VALUE_REPORTED": "27.5 µM (inactive)"}
{"COMPOUND": "CCOc1ccc(/C=C2\\N=C(c3ccc([N+](=O)[O-])cc3)OC2=O)cc1", "ASSAYED_SYSTEM": "NCI-H23", "READOUT_KIND": "GI50", "VALUE_REPORTED": "> 100 µM (inactive)"}
{"COMPOUND": "Cc1ccc(OCCn2cc(Nc3ccccc3)c(=O)[nH]c2=O)cc1", "ASSAYED_SYSTEM": "NCI-H23", "READOUT_KIND": "GI50", "VALUE_REPORTED": "> 100 µM (inactive)"}
{"COMPOUND": "CCOC(=O)/C(C#N)=C\\c1ccc(N(CCC(=O)O)CCC(=O)O)c(I)c1", "ASSAYED_SYSTEM": "NCI-H23", "READOUT_KIND": "GI50", "VALUE_REPORTED": "> 10 µM (inactive)"}
{"COMPOUND": "Cc1cc(=O)oc2cc3c(cc12)Oc1ccccc1O3", "ASSAYED_SYSTEM": "NCI-H23", "READOUT_KIND": "GI50", "VALUE_REPORTED": "89.3 µM (inactive)"}

Request: Requested read-out GI50, target or system NCI-H23, entry `CNC(=S)/C(C#N)=C(\N)N1CCN(C)CC1`
Response: > 100 µM (inactive)

Request: Please give the result for `Cc1ccc(Cc2c(=O)[nH]nc3ccccc23)cc1` too.
Response: > 100 µM (inactive)

Request: // query: O=C1CCC2(O)c3ccccc3C2Cc2ccccc21 (stereo unspecified)
Response: > 100 µM (inactive)

Request: Now the same for `COc1c2ccoc2cc2oc(=O)ccc12`
Response: > 100 µM (inactive)

Request: Now consider COC(=O)C1Cc2c([nH]c3ccccc23)-c2[nH]c3ccccc3c2CC(NC(C)=O)C(=O)NCC(=O)N1 (stereo unspecified) and answer again.
Response: > 100 µM (inactive)

Request: Entry to check: `CN1/C(=N\c2ccccc2)S/C1=N/c1ccccc1`
Response: 40 µM (inactive)
